Where do the numbers come from? From paper PMC12377105.

experimental-system: soybean lipoxygenase (model enzyme for 5-LOX) (Glycine max)
Sequence (P08170 whole entry): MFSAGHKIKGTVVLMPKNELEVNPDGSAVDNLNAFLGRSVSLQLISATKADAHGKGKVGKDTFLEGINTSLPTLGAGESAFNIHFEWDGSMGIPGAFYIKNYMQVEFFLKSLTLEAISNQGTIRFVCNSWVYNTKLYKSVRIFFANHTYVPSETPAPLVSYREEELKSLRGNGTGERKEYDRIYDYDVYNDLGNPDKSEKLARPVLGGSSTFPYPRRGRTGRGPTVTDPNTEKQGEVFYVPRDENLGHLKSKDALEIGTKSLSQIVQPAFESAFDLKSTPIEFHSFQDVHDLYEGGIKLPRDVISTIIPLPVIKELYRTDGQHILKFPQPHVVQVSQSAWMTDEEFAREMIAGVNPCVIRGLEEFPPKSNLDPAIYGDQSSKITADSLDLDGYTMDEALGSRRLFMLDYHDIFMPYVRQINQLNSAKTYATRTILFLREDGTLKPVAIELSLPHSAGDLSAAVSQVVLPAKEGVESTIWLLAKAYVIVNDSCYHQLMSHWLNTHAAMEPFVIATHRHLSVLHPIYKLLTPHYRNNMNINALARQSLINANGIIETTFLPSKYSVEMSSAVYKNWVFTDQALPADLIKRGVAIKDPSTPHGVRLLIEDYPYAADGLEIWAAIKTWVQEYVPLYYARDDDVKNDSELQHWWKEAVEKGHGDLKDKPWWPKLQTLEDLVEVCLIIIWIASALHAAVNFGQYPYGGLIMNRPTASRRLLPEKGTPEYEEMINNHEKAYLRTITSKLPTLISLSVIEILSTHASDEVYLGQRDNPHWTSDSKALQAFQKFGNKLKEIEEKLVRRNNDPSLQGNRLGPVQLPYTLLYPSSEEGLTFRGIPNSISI
procedure-details: In vitro 5-LOX inhibition assay (soybean lipoxygenase, oxidation of linoleic acid at 234 nm)
Type: biochemical
reported-conditions: 100 µM, cell-free preliminary screening

- compound: "COCC(O)Cc1ccc(O)c(OC)c1 (stereo not shown)"
  5-LOX inhibitory activity (in words): "inactive"
- compound: "COc1cc(CC(O)COc2ccccc2)ccc1O (stereo not shown)"
  5-LOX inhibitory activity (in words): "inactive"
